System: HCC-2998 colon
assay text: NCI-60 one-dose screen, 48 h
assay setup: 10 µM unless noted
Compounds without any hit were thinned out: in the full panel of roughly 83,000, 20% have a hit. Active and inactive are the calls of the source. The calls were made as follows: active = growth percent below 10; inactive = the rest.
Possible outcomes: active, inactive

{"molecule": "O=S1SC(c2ccccc2)=NN1c1cc(F)cc(F)c1 (stereo not given)", "group": "inactive"}
{"molecule": "O=C(/C=C/c1ccccc1)c1cccc(O)c1", "group": "inactive"}
{"molecule": "CCc1nnc(NC(=O)c2cc(-c3ccc(Cl)cc3Cl)oc2C)s1", "group": "inactive"}
{"molecule": "Cn1cc(-c2nnc(N)nc2-c2c[nH]c3ccc(Br)cc23)c2cc(Br)ccc21", "group": "inactive"}
{"molecule": "O=C(CCCCCCNC(=O)C(O)(O)C(F)(F)F)Nc1ncc(-c2ccccc2)s1", "group": "active"}
{"molecule": "CCOC(=O)c1c(NC(=O)c2ccc(C(F)(F)F)cc2)sc2c3c(ccc12)OCN(C)C3", "group": "active"}
{"molecule": "CN1CCN(c2ccc(Nc3nc(NCCNS(=O)(=O)c4ccc5ccccc5c4)c4sccc4n3)cc2)CC1", "group": "inactive"}
{"molecule": "COc1ccc(C2c3[nH]c4ccc(Cl)cc4c3CCN2c2oc(CO)nc2C#N)cc1 (stereo not given)", "group": "inactive"}
{"molecule": "CC(C)(C)Nc1nc2c(OCCc3ccccc3)cccn2c1-c1cccc(Oc2ccccc2)c1", "group": "inactive"}
{"molecule": "CN1CCN(c2ccc(Nc3nc(NCCNS(=O)(=O)c4ccccc4)c4sccc4n3)cc2)CC1", "group": "inactive"}
{"molecule": "COC(=O)c1cccc(NC2=C(Cl)C(=O)C(C)=C(C)C2=O)c1", "group": "inactive"}
{"molecule": "CN1CCN(Cc2ccc(NC(=O)c3cncc(C#Cc4cnc5ccc(O[C@@H]6CCOC6)nn45)c3)cc2C(F)(F)F)CC1", "group": "active"}
{"molecule": "CC(C)(O)c1cncc(-c2ccc3ncc(C#N)c(N4CCc5cc(F)c(Cl)cc54)c3c2)c1", "group": "inactive"}
{"molecule": "Cc1ccc(CSC2=C(Cl)CN(c3ccc(Cl)cc3)C2=O)cc1", "group": "inactive"}
{"molecule": "CNc1sc(S(=O)(=O)NC)nc1S(=O)(=O)c1ccc(C)cc1", "group": "inactive"}
{"molecule": "CC1=C(C)C(=O)C(Nc2ccc(C)cc2)=C(Br)C1=O", "group": "inactive"}
{"molecule": "COc1ccc2[nH]cc(-c3nn4cc(-c5ccncc5)nc4s3)c2c1", "group": "inactive"}
{"molecule": "O=C1Nc2ccc(F)cc2/C1=C\\C(=O)c1ccc(NS(=O)(=O)c2ccccc2)cc1", "group": "inactive"}
{"molecule": "C#CCOc1ccccc1C(OC(=O)c1ccccc1)C(=O)NC(C)(C)C(C)(C)C (stereo not given)", "group": "inactive"}
{"molecule": "CNC(=O)c1cc(N2CCc3cc(NC(=O)Nc4ccc(N5CCN(C)CC5)c(C(F)(F)F)c4)ccc32)ccn1", "group": "inactive"}
{"molecule": "O=C(CCCCCCN1CC(=O)N2[C@@H](c3ccc(Cl)s3)c3[nH]c4ccccc4c3C[C@H]2C1=O)NO", "group": "inactive"}
{"molecule": "C#CCN(C)CCCOc1ccc(NC(=O)CCCCCCCCC(=O)NO)cc1Cl", "group": "inactive"}
{"molecule": "CC[C@H](CC[C@@H](C)[C@H]1CC[C@H]2[C@@H]3CC(=O)C4=CC(=O)/C(=C/c5ccc([N+](=O)[O-])cc5)C[C@]4(C)[C@H]3CC[C@]12C)C(C)C", "group": "inactive"}
{"molecule": "CC(C)Sc1nc(-c2ccccc2)c(C#N)c(N2CCOCC2)n1", "group": "inactive"}
{"molecule": "CN1CCC[C@]2(C)[C@H]3CC[C@@H]4[C@@H]5[C@H]6OC[C@@]5(CCC6(C)C)CC[C@@]4(C)[C@]3(C)CC[C@H]2C1(C)C", "group": "inactive"}
{"molecule": "O=C(NNc1nc2cc(F)cc(F)c2n2cccc12)c1cccnn1", "group": "inactive"}
{"molecule": "Clc1ccc(CSc2nnc(-c3ccc(Cl)cc3)n2-c2ccccc2)cc1", "group": "inactive"}
{"molecule": "O=C(CSc1nnc(-c2ccc(Cl)cc2)n1-c1ccccc1)Nc1ccccc1Cl", "group": "inactive"}
{"molecule": "O=C(/C=C/c1ccccc1Cl)Nc1ncc(Cc2cc(Cl)ccc2Cl)s1", "group": "inactive"}
{"molecule": "Cc1cc2nc(C(Cl)Cl)nc(-c3ccc(S(=O)(=O)N(C)C)cc3)n2n1", "group": "inactive"}
{"molecule": "CC(=O)Nc1nc(C)c(-c2csc(Nc3ccccc3)n2)s1", "group": "inactive"}
{"molecule": "CCN(CC)c1ccc(/C=N/NC(=O)c2ccc(S(N)(=O)=O)cc2)cc1", "group": "inactive"}
{"molecule": "NC(=O)n1c(=O)n(-c2cccc(C(F)(F)F)c2)c(=O)c2cc(-c3ccc(F)cc3F)ccc21", "group": "inactive"}
{"molecule": "CCc1cc(O)ccc1Nc1cc(-c2ccc(-n3cccn3)cc2)[nH]n1", "group": "inactive"}
{"molecule": "Cn1ncc2c(C(=O)c3ccc(F)cc3)nc(C(C)(C)C)nc21", "group": "inactive"}
